# system_name: MAP2K1A (Homo sapiens)
# Construct: purchased in-house DSF kinase panel (SGC-style construct names; the trailing letter is the construct ID)
# Sequence (Q02750 68-361): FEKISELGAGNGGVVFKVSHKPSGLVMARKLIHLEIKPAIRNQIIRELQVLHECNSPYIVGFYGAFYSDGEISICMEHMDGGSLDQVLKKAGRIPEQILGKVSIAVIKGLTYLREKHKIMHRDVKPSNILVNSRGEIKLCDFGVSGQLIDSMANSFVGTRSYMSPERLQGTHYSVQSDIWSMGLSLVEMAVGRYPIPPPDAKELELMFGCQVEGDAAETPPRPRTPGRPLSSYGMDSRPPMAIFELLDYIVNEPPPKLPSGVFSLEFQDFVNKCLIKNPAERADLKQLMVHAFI
# assay_comment: DSF Tm panel
# Assay type: binding
# conditions_used: 10 μM compound
Measured ΔTm at 10 µM of individual entries
Give the number; °C is assumed, so skip it.

>  <compound>
CN1CCN(C(=O)Nc2ccc3cc2OCCOCCNc2ccn4ncc-3c4n2)CC1 [compound 35]

>  <unit_string>
°C

>  <ΔTm at 10 µM>
-0.2

$$$$
>  <compound>
O=C(NCc1cccc(Cl)c1)Nc1ccc2cc1OCCOCCNc1ccn3ncc-2c3n1 [compound 18]

>  <unit_string>
°C

>  <ΔTm at 10 µM>
0.2

$$$$

// ΔTm at 10 µM lookup, key: O=C(NCc1ccc(Cl)cc1F)Nc1ccc2cc1OCCOCCNc1ccn3ncc-2c3n1 [compound 21]
1.2

Same again, this time with O=C(NCc1ccc(Cl)cc1Cl)Nc1ccc2cc1OCCOCCNc1ccn3ncc-2c3n1 [compound 20]
0.8

Cited source for all entries: paper PMC12621043
